System: H82 small cell lung cancer cells
Assay: Cell proliferation assay (MTT), H82
Assay type: cell-based
Settings: Homo sapiens; H82, 48 h; read-out: IC50 48 h
pIC50: −log10 of the molar value.

>  <molecule>
CN(C)c1cc[n+](Cc2ccc(CCCCc3ccc(C[n+]4ccc(N(C)C)cc4)cc3)cc2)cc1 [MN58b]

>  <pIC50>
5.72

$$$$

* * *

System: H510 small cell lung cancer cells
Assay: Cell proliferation assay (MTT), H510
Assay type: cell-based
Conditions: Homo sapiens, NCI-H510, 72 h; read-out: IC50 72 h

>  <compound>
CN(C)c1cc[n+](Cc2ccc(CCCCc3ccc(C[n+]4ccc(N(C)C)cc4)cc3)cc2)cc1 [MN58b]

>  <IC50>
400 nM

$$$$

* * *

System: H460stock cells
Assay: Cell proliferation assay (MTT), H460stock control line
Format: cell-based, human
Settings: Homo sapiens, read-out: IC50
pIC50: −log10 of the molar value.
experimental-endpoint: pIC50

>  <compound>
CN(C)c1cc[n+](Cc2ccc(CCCCc3ccc(C[n+]4ccc(N(C)C)cc4)cc3)cc2)cc1 [MN58b]

>  <readout-value>
6.41

$$$$

* * *

Tested on: H460 non-small lung cancer cells
Experiment: Cell proliferation assay (MTT), H460
Format: cell-based, human
Conditions: Homo sapiens, NCI-H460, 48 h, H460, 48 h; read-out: IC50 48 h

>  <compound>
CN(C)c1cc[n+](Cc2ccc(CCCCc3ccc(C[n+]4ccc(N(C)C)cc4)cc3)cc2)cc1 [MN58b]

>  <IC50, µM>
7.03

$$$$

* * *

Tested on: H1299 non-small lung cancer cells
Assay: Cell proliferation assay (MTT), H1299
Type: cell-based
Conditions: Homo sapiens, NCI-H1299, 72 h; read-out: IC50 72 h

>  <molecule>
CN(C)c1cc[n+](Cc2ccc(CCCCc3ccc(C[n+]4ccc(N(C)C)cc4)cc3)cc2)cc1 [MN58b]

>  <value-unit>
nM

>  <IC50>
2700

$$$$

* * *

Tested on: H460 non-small lung cancer cells
Experiment: Cell proliferation assay (MTT), H460
Format: cell-based, human
Details: Homo sapiens, NCI-H460, 72 h, H460, 72 h (Table 6); read-out: IC50 72 h
experimental-endpoint: IC50 (nM)

>  <compound>
CN(C)c1cc[n+](Cc2ccc(CCCCc3ccc(C[n+]4ccc(N(C)C)cc4)cc3)cc2)cc1 [MN58b]

>  <experimental-endpoint>
IC50

>  <readout-value>
2600

$$$$

* * *

Test system: primary cultures of resected NSCLC tumours
Experiment: Primary cultures of NSCLC tumours treated 10 days, Cristal Violet quantification
Assay type: cell-based, human
Conditions: primary NSCLC tumour cultures, 0-20 μM, 10 days
Decide using RESISTANT (number of tumour samples) alone. Strictly below 30: 1.0. Equal to or above 30: 0.0.

>  <compound>
CN(C)c1cc[n+](Cc2ccc(CCCCc3ccc(C[n+]4ccc(N(C)C)cc4)cc3)cc2)cc1 [MN58b]

>  <cat>
1.0

$$$$
>  <compound>
Nc1ccn([C@@H]2O[C@H](CO)[C@@H](O)C2(F)F)c(=O)n1

>  <cat>
0.0

$$$$
>  <compound>
CC(=O)O[C@H]1C(=O)[C@@]2(C)[C@H]([C@H](OC(=O)c3ccccc3)[C@]3(O)C[C@H](OC(=O)[C@H](O)[C@@H](NC(=O)c4ccccc4)c4ccccc4)C(C)=C1C3(C)C)[C@]1(OC(C)=O)CO[C@@H]1C[C@@H]2O

>  <cat>
0.0

$$$$
>  <compound>
[NH2][Pt]([NH2])([Cl])[Cl] [cDDP, cisplatin, reference compound]

>  <cat>
0.0

$$$$
>  <compound>
CCC1=C[C@@H]2CN(C1)Cc1c([nH]c3ccccc13)[C@@](C(=O)OC)(c1cc3c(cc1OC)N(C)[C@H]1[C@@](O)(C(=O)OC)[C@H](OC(C)=O)[C@]4(CC)C=CCN5CC[C@]31[C@@H]54)C2

>  <cat>
1.0

$$$$

* * *

Test system: H510 small cell lung cancer cells
Assay: Cell proliferation assay (MTT), H510
Type: cell-based
Conditions: Homo sapiens, NCI-H510, 144 h; read-out: IC50 144 h
pIC50: −log10 of the molar value.

>  <molecule>
CN(C)c1cc[n+](Cc2ccc(CCCCc3ccc(C[n+]4ccc(N(C)C)cc4)cc3)cc2)cc1 [MN58b]

>  <assay-target>
H510 small cell lung cancer cells

>  <pIC50>
7.00

$$$$
